Recorded measurements of POC (Percent of control) FGFR1, one per entry
- target-under-test: ProfilerPro Kinase Selectivity Assay Kit kinases (Homo sapiens)
- Type: biochemical
- reported-conditions: FGFR1; 1 μM compound concentration

Worked examples follow.
{"smiles-data": "COc1ccc(Nc2ncccc2-c2ncnc3[nH]cnc23)cn1", "assay-result": "94 POC"}
{"smiles-data": "Cc1nc(N)nc(-c2cc(CN3CCN(S(C)(=O)=O)CC3)cnc2Nc2cccc(O)c2)n1", "assay-result": "99 POC"}
{"smiles-data": "Cc1nc(N)nc(-c2cccnc2Nc2cccc(O)c2)n1", "assay-result": "99 POC"}
{"smiles-data": "Cc1cnc(Nc2cccc3[nH]ncc23)c(-c2nc(C)nc(N)n2)c1", "assay-result": "94 POC"}

Now examine the next entry.
Reported POC (Percent of control) FGFR1, molecule `c1cnc(Nc2cccc3[nH]ncc23)c(-c2ncnc3[nH]cnc23)c1` : ____
62 POC

====

This section presents molecules with their documented POC (Percent of control) IGF1R values.
- target-under-test: ProfilerPro Kinase Selectivity Assay Kit kinases (Homo sapiens)
- Type: biochemical
- reported-conditions: IGF1R; 1 μM compound concentration
# unit: POC | format: bare number

{"molecule": "Cc1nc(N)nc(-c2cc(CN3CCN(S(C)(=O)=O)CC3)cnc2Nc2cccc(O)c2)n1 [Example 30]", "units-text": "POC", "assay-result": 80}

Suppose we examine the molecule Cc1nc(N)cc(-c2cccnc2Nc2cccc3[nH]ncc23)n1 [Example 27] ; what POC (Percent of control) IGF1R value has been reported?
41

Also, COc1ccc(Nc2ncc(CN3CCN(C(C)=O)CC3)cc2-c2nc(C)nc3[nH]cnc23)cn1 [Example 89] please.
98

Same question, Cc1nc(N)nc(-c2cccnc2Nc2cccc(O)c2)n1 [Example 23] this time
101

Try this molecule next: Cc1cnc(Nc2cccc3[nH]ccc23)c(-c2nc(C)nc(N)n2)c1 [Example 46]
78

====

- target-under-test: ProfilerPro Kinase Selectivity Assay Kit kinases (Homo sapiens)
- Assay type: biochemical
- reported-conditions: cRAF; 1 μM compound concentration
Reported values of POC (Percent of control) cRAF for individual entries
Expressed in POC, but write only the number.

{"compound": "CCc1cnc(Nc2ccc(OC)nc2)c(-c2nc(C)nc3[nH]cnc23)c1 [Example 74]", "units-text": "POC", "assay-result": 101}
{"compound": "Cc1cnc(Nc2cccc3[nH]ncc23)c(-c2nc(C)nc(N)n2)c1 [Example 47]", "units-text": "POC", "assay-result": 56}
{"compound": "c1cnc(Nc2cccc3[nH]ccc23)c(-c2ncnc3[nH]cnc23)c1 [Example 19]", "units-text": "POC", "assay-result": 56}
{"compound": "COc1ccc(Nc2ncccc2-c2ncnc3[nH]cnc23)cn1 [Example 20]", "units-text": "POC", "assay-result": 59}
{"compound": "Cc1nc(N)nc(-c2cccnc2Nc2cccc(O)c2)n1 [Example 23]", "units-text": "POC", "assay-result": 108}

// map Cc1nc(N)nc(-c2cccnc2Nc2cccc3[nH]ccc23)n1 [Example 22] to recorded POC (Percent of control) cRAF (system: ProfilerPro Kinase Selectivity Assay Kit kinases (Homo sapiens))
98

Param item: COc1ccc(Nc2ncccc2-c2nc(C)nc3[nH]cnc23)cn1 [Example 58]
99

What about Cc1nc(N)cc(-c2cccnc2Nc2cccc3[nH]ncc23)n1 [Example 27] ?
95

Another: Cc1nc(N)nc(-c2cc(CN3CCN(S(C)(=O)=O)CC3)cnc2Nc2cccc(O)c2)n1 [Example 30]
95

How about COc1ccc(Nc2ncc(CN3CCN(C(C)=O)CC3)cc2-c2nc(C)nc3[nH]cnc23)cn1 [Example 89] ?
99

And then c1cnc(Nc2cccc3[nH]ncc23)c(-c2ncnc3[nH]cnc23)c1 [Example 18] , what is it?
1

And what about the compound COc1ccc(Nc2ncc(Cc3ccc(S(C)(=O)=O)cc3)cc2-c2nc(C)nc3[nH]cnc23)cn1 [Example 103] ?
100

Now try Cc1nc(-c2cccnc2Nc2cccc3[nH]ncc23)c2nc[nH]c2n1 [Example 57] .
100

Then this compound: Cc1cnc(Nc2cccc3[nH]ccc23)c(-c2nc(C)nc(N)n2)c1 [Example 46]
91

The origin of these recorded values is patent US8772480B2.
